test system: MDR1 (P-gp); experiment: Blood-brain-barrier (BBB) penetration potential via MDCK-MDR1 permeability assay; settings: dog, MDCK-MDR1, pH 7.4, MDCK-MDR1: Papp A-B, A-B direction
We begin with a simple list: items and their reported Papp A→B at 120 min, 5 μM.
// units = ×10⁻⁶ cm/s; emit number, no label

Consider the reported Papp A→B at 120 min, 5 μM for these molecules:
INSERT INTO assay_data (molecule, unit_tag, reported_measurement) VALUES
  ('CC#Cc1ccc(-c2ccc(N(C)C3CC4CCC(N4)C3F)nn2)c(O)c1 (single isomer, unassigned) [Compound 30B]', '×10⁻⁶ cm/s', 10.6),
  ('CN(c1ccc(-c2ccc(-n3nccn3)cc2O)nn1)[C@H]1C[C@@H]2CC[C@@H](N2)[C@H]1F [Compound 90B]', '×10⁻⁶ cm/s', 6.56);

Now look at this entry.
Request - read-out Papp A→B at 120 min, 5 μM | tested on MDR1 (P-gp) | molecule CC#Cc1ccc(-c2ccc(N(C)[C@@H]3C[C@H]4CC[C@H](N4)[C@@H]3F)nn2)c(O)c1 (single isomer, unassigned) [Compound 30A]
11.1

====

test system: MDR1-MDCK cell monolayers; experiment: Blood-brain-barrier (BBB) penetration potential via MDCK-MDR1 permeability assay; settings: B-A direction
QUANTITY: MDCK-MDR1: % Recov B-A

Consider the reported MDCK-MDR1: % Recov B-A for these compounds:
INSERT INTO assay_data (compound, measurement_target, reported_measurement) VALUES
  ('CN(c1ccc(-c2ccc(-c3cnn(C)c3)cc2O)nn1)[C@H]1C[C@H]2CC(F)(F)[C@H](C1)N2 (single isomer, unassigned) [Compound 3B]', 'MDR1-MDCK cell monolayers', '71%'),
  ('CN(c1ccc(-c2cc3cncnc3cc2O)nn1)[C@@H]1C[C@H]2CC[C@H](N2)[C@@H]1F [Compound 75A]', 'MDR1-MDCK cell monolayers', '100%'),
  ('CN(c1ccc(-c2ccc(-c3cnc(C#N)cn3)cc2O)nn1)[C@H]1C[C@@H]2CCC[C@@H](N2)[C@H]1F [Compound 28B]', 'MDR1-MDCK cell monolayers', '70%'),
  ('Cc1cnc(-c2ccc(-c3ccc(N(C)[C@@H]4C[C@H]5CCC[C@H](N5)[C@@H]4F)nn3)c(O)c2)o1 [Compound 16A]', 'MDR1-MDCK cell monolayers', '41%');

Quick check: MDCK-MDR1: % Recov B-A of CN(c1ccc(-c2cc3ncn(CC(F)(F)F)c(=O)c3cc2O)nn1)[C@H]1C[C@@H]2CCC[C@@H](N2)[C@H]1F [Compound 58B] ?
85%

Quick check: MDCK-MDR1: % Recov B-A of CN(c1ccc(-c2cc3ncccc3cc2O)nn1)[C@H]1C[C@@H]2CC[C@@H](N2)[C@H]1F [Compound 73B] ?
72%

====

system: MDR1-MDCK cell monolayers; conditions: dog, MDCK-MDR1, 120 min, 5 μM, pH 7.4
QUANTITY: MDCK-MDR1: % Recov B-A

INSERT INTO assay_data (compound, measurement_target, reported_measurement) VALUES
  ('CN(c1ccc(-c2cc3c(=O)n(C)cnc3cc2O)nn1)[C@@H]1C[C@H]2CC[C@@H]([C@@H]1F)N2C [Compound 102A]', 'MDR1-MDCK cell monolayers', '92%');

Now look at this entry.
Request - read-out MDCK-MDR1: % Recov B-A | tested on MDR1-MDCK cell monolayers | compound CN(c1ccc(-c2cc3cnccc3cc2O)nn1)[C@H]1C[C@@H]2CC(F)(F)[C@H](C1)N2 [Compound 126B]
88%

Ref: patent US12509460B2
